test system: XIP peptide (Xip251-270) binding; assay: XIP fragment 251-270 binding compounds – biochemical, small-molecule microarray, fluorescence 635/667 nm, 0.1 µg/mL protein, primary screen (AID 1182); conditions: fluorescent protein binding, 635 nm, higher = more signal, called active from +8 up or from −8 down
quantityName: composite z-score
Answers are plain numbers.

Examples with answers:
Notebook: CC(c1ccccc1)C(O)C1C=CC2C(=O)N(C)C(=O)C2N1Nc1ccccc1 (centres undefined) , composite z-score read as 0.255

Notebook: C=CCC(OC(C)=O)[C@@H]1[C@@H](N(Cc2ccc(-c3cccc(C(F)(F)F)c3)o2)C(=O)c2ccc(-c3ccccc3)cc2)c2cc(OCCCO)ccc2N1C(=O)Cc1ccc2ccccc2c1 (some centres undefined) , composite z-score read as -0.186

Notebook: NC(=O)NCC#Cc1ccc2c(c1)[C@]1(C(=O)N2)[C@H](c2ccccc2OCCO)N2[C@H](c3ccccc3)[C@H](c3ccccc3)OC(=O)[C@H]2[C@@H]1C(=O)NC[C@H](O)c1ccccc1 , composite z-score read as 0.427

Notebook: COc1cc(NN2C(C(O)c3ccc(N(C)C)cc3)C=CC3C(=O)N(c4ccccc4)C(=O)C32)cc(OC)c1OC (centres undefined) , composite z-score read as 0.596

Notebook: CC(C)C(O)C1C=CC2C(=O)N(c3ccccc3)C(=O)C2N1Nc1ccccc1 (centres undefined) , composite z-score read as 1.33

Notebook: [N-]=[N+]=Nc1ccccc1C[C@]1(C(=O)N2CCOCC2)COC(c2ccc(OCCCO)cc2)=N1 , composite z-score read as 0.373

Notebook: CCOC(=O)C1=C[C@@H](c2ccccc2)N(S(=O)(=O)c2ccc(C)cc2)[C@H]1c1ccc(OC)cc1 , composite z-score read as 0.138

Notebook: CC(C)[Si]1(C(C)C)OCc2cc(C3CC3)nc(-c3ccc(Oc4ccccc4)cc3)c21 , composite z-score read as -0.495

Notebook: COc1ccc([Si](C)(C)[C@H]2[C@H](CC(=O)N3CCC[C@H]3CO)O[C@@]3(C(=O)N(Cc4ccc(N5CCOC5=O)cc4)c4ccccc43)[C@@H]2C)cc1 , composite z-score read as 0.214

Notebook: CC(C)C(CO)N1C(=O)[C@@H]2[C@H]3C(=O)OCC=C[C@H]3OC23C=CCN(c2ccc(Cl)cc2)C(=O)[C@@H]13 (some centres undefined) , composite z-score read as 0.331

Would you be so kind as to report composite z-score for each listed record?
1. CCOC(=O)C=Cc1cccc(C)c1O
2. CCCC[C@@H](O)C1=C(COC)C[C@H]2C(=O)N(C)C(=O)[C@H]2[C@H]1CO
3. C=CC[C@]1(C(=O)N2CCOCC2)COC(c2ccc(OCCCO)cc2)=N1

// result
2.79
-0.703
0.627

Would you be so kind as to report composite z-score for each listed record?
1. COC(=O)[C@@]1(Cc2ccc(F)cc2)[C@H]2c3cc(C(=O)N4CCCC4)n(CCc4c[nH]c5ccccc45)c3C[C@H]2CN1C(=O)c1ccccc1
2. CCOC(=O)C[C@H]1[C@H](OC(=O)c2cc3ccccc3oc2=O)[C@@H](NC(=O)c2ccccc2)c2cc(OCCCO)ccc2N1C(=O)c1ccccc1
3. CC(C)N1CC=CC23O[C@@H]4C=CCCOC(=O)C4[C@H]2C(=O)N(CCCO)[C@@H]3C1=O (some centres undefined)
4. COCCOC(=O)N1C(=O)[C@@]2(c3cc(C#CC4(O)CCCCCC4)ccc31)[C@H](C(=O)Nc1nc3ccccc3s1)[C@H]1C(=O)O[C@H](c3ccccc3)[C@H](c3ccccc3)N1[C@@H]2c1ccc(O)cc1
5. O=C(NCCN1CCOCC1)[C@@H]1c2ccccc2C(=O)N(Cc2ccccc2Cl)[C@H]1c1ccc(CO)cc1

// result
0.0236
-0.0879
0.431
0.479
-0.121

Would you be so kind as to report composite z-score for each listed record?
1. NC(=O)NCC#Cc1ccc2c(c1)[C@]1(C(=O)N2)[C@H](C(=O)N2CCN(c3ncccn3)CC2)[C@H]2C(=O)O[C@H](c3ccccc3)[C@H](c3ccccc3)N2[C@@H]1c1ccc(O)cc1
2. CC1CC/C=C\[C@H]2OC34C=CCN(Cc5ccccc5)C(=O)[C@H]3N(C(CO)C(C)C)C(=O)[C@@H]4C2C(=O)O1 (some centres undefined)
3. [N-]=[N+]=NCc1ccccc1C[C@@]1(C(N)=O)N=C(c2ccc(OCCCO)cc2)O[C@@H]1c1ccccc1
4. NCCCCCNC(=O)[C@H]1C[C@H]2C(=O)N3CCC[C@H]3C(=O)N2[C@H]1c1cccc(OCCO)c1

// result
1. -0.0728
2. 0.0855
3. 0.755
4. 1.19
